Quick note: these are AC50 numbers for system: Type-1 angiotensin II receptor (Homo sapiens, UniProt P30556); also: assay procedure not described here
Sequence (P30556 whole entry): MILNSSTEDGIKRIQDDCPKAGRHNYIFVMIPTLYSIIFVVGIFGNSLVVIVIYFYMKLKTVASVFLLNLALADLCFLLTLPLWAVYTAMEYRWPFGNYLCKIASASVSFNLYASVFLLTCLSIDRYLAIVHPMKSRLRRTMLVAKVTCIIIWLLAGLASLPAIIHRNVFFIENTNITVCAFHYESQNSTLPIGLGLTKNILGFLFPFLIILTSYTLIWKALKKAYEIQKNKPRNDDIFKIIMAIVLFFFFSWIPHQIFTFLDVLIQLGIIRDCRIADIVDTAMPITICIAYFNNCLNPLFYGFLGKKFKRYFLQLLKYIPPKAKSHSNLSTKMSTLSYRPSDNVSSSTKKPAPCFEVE

Some solved entries appear below for comparison.
C/C=C(/C(=C/C)c1ccc(O)cc1)c1ccc(O)cc1
> 10 µM
CCC(NC(C)C)C(O)c1ccc(O)c2[nH]c(=O)ccc12 (centres undefined)
> 30 µM
CC(C)c1cccc(C(C)C)c1O
> 30 µM
O=C(O)CCNC(=O)c1ccc(/N=N/c2ccc(O)c(C(=O)O)c2)cc1 [BALSALAZIDE]
27.6 µM

get_value(item= O=C(c1cc(Cc2n[nH]c(=O)c3ccccc23)ccc1F)N1CCN(C(=O)C2CC2)CC1 , readout=AC50) returns > 30 µM

Notebook: CC[C@H](C)C(=O)O[C@H]1C[C@@H](C)C=C2C=C[C@H](C)[C@H](CC[C@@H]3C[C@@H](O)CC(=O)O3)[C@H]21 , AC50 read as 39.8 µM

The compound listed as C=C1c2cccc(O)c2C(=O)C2=C(O)[C@]3(O)C(=O)C(C(N)=O)=C(O)[C@@H](N(C)C)[C@@H]3[C@@H](O)[C@H]12 shows AC50 equal to > 10 µM

Entry CC(C(=O)O)c1ccc2oc(-c3ccc(Cl)cc3)nc2c1 (centres undefined) ; AC50 = > 30 µM

Summary for this compound, C[N+]1(C)CCC(=C(c2ccccc2)c2ccccc2)CC1 : AC50 is > 10 µM
